The values you see were collected from ChEMBL document CHEMBL2331391.

test system: Macrophage; experiment: Antiinflammatory activity in human macrophages assessed as inhibition of LPS-induced IL-8 release at 10 uM preincubated for 30 mins before LPS-challenge measured after 24 hrs post challenge by ELISA; assay type: functional, cell-based
Calls of active or inactive are those of the source. The rule behind the calls is not given here.
// allowed return values: true for active, false for inactive

Would you please look over these solved cases?
CCc1nccc(C(=O)O)c1O ... false
Cc1nccc(C(=O)O)c1O ... false
O=C(O)c1ccnc(CO)c1O ... false
Cc1cc(C(=O)O)c(O)c(CO)n1 ... true
C[n+]1ccc(C(=O)O)c(O)c1.[Cl-] ... true
CC(=O)Oc1ccccc1C(=O)O ... true
O=C(O)c1ccncc1O ... false
O=C(O)c1ccccc1O ... true

Moving on to another molecule below.
**Q:** Please share the test call associated with Cc1c(O)c(C(=O)O)cc[n+]1C.[Cl-] .
**A:** true
